# Study system: Sushi domains (SD1/2) protein of GABAB1a (GB1a)
# Sequence (Q9Z0U4 29-158): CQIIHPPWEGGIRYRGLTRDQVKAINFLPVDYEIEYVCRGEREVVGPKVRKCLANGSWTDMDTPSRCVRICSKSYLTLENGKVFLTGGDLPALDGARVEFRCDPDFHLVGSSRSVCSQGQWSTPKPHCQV
# Protocol description: FP competition vs TAMRA AJAP-1probe
Non-standard residues stand in square brackets, D forms with d. 2Nal = N[C@@H](Cc1ccc2ccccc2c1)C(=O)O; Sar = CNCC(=O)O
Measured metric: Ki
Units required after the number.

>  <Binder>
Ac-ETEFIAWGGADTD-NH2 [hybrid peptide Y]

>  <Result>
345 nM

$$$$
>  <Binder>
Ac-RRRRRREDDDWIDWGPTSDDD-NH2

>  <Result>
43.4 nM

$$$$
>  <Binder>
Ac-ETEFIAWG[Sar]TGDED-NH2 (SMILES CC[C@H](C)[C@H](NC(=O)[C@H](Cc1ccccc1)NC(=O)[C@H](CCC(=O)O)NC(=O)[C@@H](NC(=O)[C@H](CCC(=O)O)NC(C)=O)[C@@H](C)O)C(=O)N[C@@H](C)C(=O)N[C@@H](Cc1c[nH]c2ccccc12)C(=O)NCC(=O)N(C)CC(=O)N[C@H](C(=O)NCC(=O)N[C@@H](CC(=O)O)C(=O)N[C@@H](CCC(=O)O)C(=O)N[C@@H](CC(=O)O)C(N)=O)[C@@H](C)O) [peptide 38]

>  <Result>
32 nM

$$$$
>  <Binder>
Ac-ETEFIAWGPTGDEN-NH2

>  <Result>
43 nM

$$$$

Q: Fill in the blank: the reported Ki of Ac-EDDD[2Nal]IDWGPTSDDD-NH2 (SMILES CC[C@H](C)[C@H](NC(=O)[C@H](Cc1ccc2ccccc2c1)NC(=O)[C@H](CC(=O)O)NC(=O)[C@H](CC(=O)O)NC(=O)[C@H](CC(=O)O)NC(=O)[C@H](CCC(=O)O)NC(C)=O)C(=O)N[C@@H](CC(=O)O)C(=O)N[C@@H](Cc1c[nH]c2ccccc12)C(=O)NCC(=O)N1CCC[C@H]1C(=O)N[C@H](C(=O)N[C@@H](CO)C(=O)N[C@@H](CC(=O)O)C(=O)N[C@@H](CC(=O)O)C(=O)N[C@@H](CC(=O)O)C(N)=O)[C@@H](C)O) [peptide 21] is ____.
Ans: 5.3 nM

Q: Please give the result for Ac-ETEFIAWGPTGDDD-NH2 too.
Ans: 27 nM

Q: Please give the result for Ac-EVEFIAWGPTGDED-NH2 too.
Ans: 28 nM

Q: Please give the result for Ac-ETEFIAWGPTGDWD-NH2 too.
Ans: 54 nM

Q: Please give the result for Ac-DAIVWGPTVSRED-NH2 [… (SEQ ID NO: 342)] too.
Ans: 208 nM
